Consider the following variants; for each one, report its protein stability index.
B1: PBXIP1 (parent)
chain: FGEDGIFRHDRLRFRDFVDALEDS

Variants of: B1
Assay: protein stability index of a GFP-peptide fusion (GPS, HEK-293T) (PSI 1-6); higher = more stable;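 further: lentivirally expressed fusions sorted by FACS into six bins by GFP to DsRed ratio, PSI derived from sequencing read proportions per bin multiplied by bin number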
Conditions: c terminus: a fixed tail appended

Req: Returns the measured protein stability index for the input variant. Input: L21G
Resp: 2.97

Req: Returns the measured protein stability index for the input variant. Input: F17C
Resp: 3.12

Req: Returns the measured protein stability index for the input variant. Input: G2C
Resp: 2.83

Req: Returns the measured protein stability index for the input variant. Input: G5R
Resp: 3.02

Req: Returns the measured protein stability index for the input variant. Input: D10T
Resp: 2.07

Req: Returns the measured protein stability index for the input variant. Input: H9N
Resp: 3.28

Req: Returns the measured protein stability index for the input variant. Input: D19V
Resp: 1.91

Req: Returns the measured protein stability index for the input variant. Input: D19Y
Resp: 2.35

Req: Returns the measured protein stability index for the input variant. Input: D4S
Resp: 1.77

Req: Returns the measured protein stability index for the input variant. Input: R8P
Resp: 3.8

Req: Returns the measured protein stability index for the input variant. Input: I6F
Resp: 1.33

Req: Returns the measured protein stability index for the input variant. Input: R11S
Resp: 2.73

Req: Returns the measured protein stability index for the input variant. Input: R13P
Resp: 3.35

Req: Returns the measured protein stability index for the input variant. Input: G2M
Resp: 2.91

Req: Returns the measured protein stability index for the input variant. Input: V18G
Resp: 3.16

Req: Returns the measured protein stability index for the input variant. Input: F17R
Resp: 3.69

Req: Returns the measured protein stability index for the input variant. Input: L21W
Resp: 2.57

Req: Returns the measured protein stability index for the input variant. Input: G5F
Resp: 1.66

Req: Returns the measured protein stability index for the input variant. Input: D10W
Resp: 1.74

Req: Returns the measured protein stability index for the input variant. Input: E22C
Resp: 1.93

Req: Returns the measured protein stability index for the input variant. Input: F1K
Resp: 2.64

Req: Returns the measured protein stability index for the input variant. Input: F17H
Resp: 3.25
